Source: paper PMC8286831

Record form. Attribute: pIC50. Fill in for each entry.
target: SARS-CoV-2 nsp13 helicase (Severe acute respiratory syndrome coronavirus 2, UniProt P0DTD1); assay: biochemical; assay type: biochemical; details: IC50 0.02% Tween-20 − (absence)
One number for each entry, as −log10 of the molar value.

molecule	pIC50
CC1=C(/C=C/C(C)=C/C=C/C(C)=C/C(=O)Nc2ccc(O)cc2)C(C)(C)CCC1 [Fenretinide]	5.14
CCCCCCCC/C=C\CCCCCCCC(=O)O [Oleic acid]	4.85
CC(C)(Sc1ccc(CCN(CCCCC2CCCCC2)C(=O)NC2CCCCC2)cc1)C(=O)O [GW7647]	5.64
CC(C)(C[C@H]1CN(S(=O)(=O)c2cccc(C(F)(F)F)c2)c2cc(-c3cc(F)cc(OC(F)F)c3)ccc2O1)C(=O)O [Cintirorgon]	5.68
CC1(C)CCC(c2ccc(Cl)cc2)=C(CN2CCN(c3ccc(C(=O)NS(=O)(=O)c4ccc(N[C@H](CCN5CCOCC5)CSc5ccccc5)c(S(=O)(=O)C(F)(F)F)c4)cc3)CC2)C1 [Navitoclax]	6.13
Cc1cc2c(C(C)C)c(O)c(O)c(C=O)c2c(O)c1-c1c(C)cc2c(C(C)C)c(O)c(O)c(C=O)c2c1O [Gossypol]	5.89
Cc1ccc(C(=O)Nc2ccc(S(=O)(=O)O)c3cc(S(=O)(=O)O)cc(S(=O)(=O)O)c23)cc1NC(=O)c1cccc(NC(=O)Nc2cccc(C(=O)Nc3cc(C(=O)Nc4ccc(S(=O)(=O)O)c5cc(S(=O)(=O)O)cc(S(=O)(=O)O)c45)ccc3C)c2)c1 [Suramin]	6.13
COc1cc(C(=O)O)ccc1NC(=O)[C@@H]1N[C@@H](CC(C)(C)C)[C@](C#N)(c2ccc(Cl)cc2F)[C@H]1c1cccc(Cl)c1F [Idasanutlin]	5.64
CCCCC/C=C\C/C=C\CCCCCCCC(=O)O [Linoleic acid]	5.37
COc1ccc(-c2ccc3cc(C(=O)O)ccc3c2)cc1C12CC3CC(CC(C3)C1)C2 [Adapalene]	5.89

Batch request: pIC50 for each of the following molecules.
1. CC(C)c1cc(C(C)C)c(CC(=O)NS(=O)(=O)Oc2c(C(C)C)cccc2C(C)C)c(C(C)C)c1 [Avasimibe]
2. COc1cc(C(=O)NS(=O)(=O)c2ccccc2C)ccc1Cc1cn(C)c2ccc(NC(=O)OC3CCCC3)cc12 [Zafirlukast]

Out:
5.89
5.82
